Exercise: state measured Kd for each of the binders provided.
# system.name: T1, EsCas13d, nuclease-dead (Eubacterium siraeum, UniProt B0MS50, R295A;H300A;R849A;H854A)
# T1 sequence: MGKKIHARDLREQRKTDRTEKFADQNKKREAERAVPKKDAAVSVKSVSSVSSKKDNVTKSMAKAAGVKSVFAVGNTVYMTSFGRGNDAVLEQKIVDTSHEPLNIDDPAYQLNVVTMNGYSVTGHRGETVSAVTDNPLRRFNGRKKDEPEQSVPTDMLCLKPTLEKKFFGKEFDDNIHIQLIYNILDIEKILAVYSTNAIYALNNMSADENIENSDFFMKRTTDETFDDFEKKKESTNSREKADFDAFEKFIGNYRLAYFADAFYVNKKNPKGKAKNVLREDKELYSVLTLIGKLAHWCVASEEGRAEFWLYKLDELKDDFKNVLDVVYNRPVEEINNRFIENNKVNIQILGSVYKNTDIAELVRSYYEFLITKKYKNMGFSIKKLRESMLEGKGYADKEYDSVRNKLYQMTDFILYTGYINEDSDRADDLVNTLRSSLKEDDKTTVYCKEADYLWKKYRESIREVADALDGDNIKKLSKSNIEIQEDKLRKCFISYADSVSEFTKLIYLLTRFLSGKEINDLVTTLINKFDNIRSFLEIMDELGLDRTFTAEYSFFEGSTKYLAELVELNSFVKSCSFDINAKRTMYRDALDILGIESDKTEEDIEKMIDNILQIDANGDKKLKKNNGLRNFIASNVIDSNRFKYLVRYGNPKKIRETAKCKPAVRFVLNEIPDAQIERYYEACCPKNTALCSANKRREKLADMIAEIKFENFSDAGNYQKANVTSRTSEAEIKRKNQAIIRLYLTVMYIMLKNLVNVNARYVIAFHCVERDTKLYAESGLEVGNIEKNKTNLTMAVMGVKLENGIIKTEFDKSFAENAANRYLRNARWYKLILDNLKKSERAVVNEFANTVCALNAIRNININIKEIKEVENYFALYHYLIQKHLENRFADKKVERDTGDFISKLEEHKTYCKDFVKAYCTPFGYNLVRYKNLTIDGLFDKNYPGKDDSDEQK
# method.summary: crRNA (strand 1, pre-loaded); Mg2+; 40 mM Tris-HCl pH 7.5, 150 mM NaCl, 6 mM MgCl2, 1 mM DTT, 0.1% Tween-20, 0.2 mg/ml BSA; 25 C; 10 min per concentration, then washed
# recorded.conditions: tags: His6-TwinStrep-SUMO cleaved; N-terminal SNAP kept (SNAP-Surface 488); label: 3' end held by stalled T7 RNA polymerase

binder: target 2 MT 5'PFS GUA 3'PFS CAU (mixed) RNA 1: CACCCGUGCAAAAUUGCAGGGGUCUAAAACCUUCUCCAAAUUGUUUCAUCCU RNA 2: GGGAAUGGAUCCACAUCUACGAAUUCGUAAGGAUGAAACAAUUUGGAGAAGCAUAGAUCGGAAGAGCACACGU
Kd: 6.3 nM

Batch: Kd for all items listed.
1. target 1 C2G,G12A (mixed) RNA 1: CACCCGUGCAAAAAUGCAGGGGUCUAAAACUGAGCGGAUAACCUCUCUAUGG RNA 2: GGGAAUGGAUCCACAUCUACGAAUUCGUACCAUAGAGAGAUUAUCCGCUGACCGAGAUCGGAAGAGCACACGU
2. target 1 MT 5'PFS GUG 3'PFS GAC (mixed) RNA 1: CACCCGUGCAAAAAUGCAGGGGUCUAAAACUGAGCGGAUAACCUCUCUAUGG RNA 2: GGGAAUGGAUCCACAUCUACGAAUUCGUGCCAUAGAGAGGUUAUCCGCUCAGACAGAUCGGAAGAGCACACGU

Found:
1: 3.51 nM; 2: 17.2 nM

Lab note: target 1 C6A,U8A (mixed) RNA 1: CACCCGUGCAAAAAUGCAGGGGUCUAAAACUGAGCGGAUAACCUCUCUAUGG RNA 2: GGGAAUGGAUCCACAUCUACGAAUUCGUACCAUAGAGAGGUUAACAGCUCACCGAGAUCGGAAGAGCACACGU gave Kd of 14.4 nM
